tested on: Enterococcus faecium 1; test: microbe, parasite or virus in culture; set-up: CLSI broth microdilution MIC in MHB-II; conditions: Enterococcus faecium, 1, 18 h, read-out: MIC
reportedEndpoint: MIC (µg/mL)
Entry rule: numbers only, all in µg/mL.

Which MIC value is on record for CCCCCCCCCCCCCCCC(=O)N[C@@H](CCCCN)C(=O)Nc1cccc(CN[C@H](C(=O)O)[C@H](O[C@@H]2O[C@H](CN)[C@@H](O)[C@H]2O)[C@H]2O[C@@H](n3ccc(=O)[nH]c3=O)[C@H](O)[C@@H]2O)c1 [compound 6, analogue 6] ?
1

Which MIC value is on record for CCCCCCCCCCCCCCCC(=O)N[C@@H](CCCCN)C(=O)NCc1cccc(CN[C@H](C(=O)O)[C@H](O[C@@H]2O[C@H](CN)[C@@H](O)[C@H]2O)[C@H]2O[C@@H](n3ccc(=O)[nH]c3=O)[C@H](O)[C@@H]2O)c1 [compound 2, analogue 2] ?
1

Which MIC value is on record for CCCCCCCCCCCCCCCC(=O)N[C@@H](CCCNC(=N)N)C(=O)Nc1cccc(CN[C@H](C(=O)O)[C@H](O[C@@H]2O[C@H](CN)[C@@H](O)[C@H]2O)[C@H]2O[C@@H](n3ccc(=O)[nH]c3=O)[C@H](O)[C@@H]2O)c1 [compound 8, analogue 8] ?
1

* * *

Assignment: determine reported MIC for the given compounds.
test system: E. faecium ATCC 35667; construct: ATCC 35667; assay: microbe, parasite or virus in culture; details: Enterococcus faecium, ATCC35667
Kindly write the number and append the unit.

Which MIC value is on record for `CO[C@H]1/C=C/O[C@@]2(C)Oc3c(C)c(O)c4c(O)c(c(/C=N/N5CCN(C)CC5)c(O)c4c3C2=O)NC(=O)/C(C)=C\C=C\[C@H](C)[C@H](O)[C@@H](C)[C@@H](O)[C@@H](C)[C@H](OC(C)=O)[C@@H]1C` ?
5 µM

Which MIC value is on record for `CN[C@@H]1[C@H](O[C@H]2[C@H](O[C@H]3[C@H](O)[C@@H](O)[C@H](N=C(N)N)[C@@H](O)[C@@H]3N=C(N)N)O[C@@H](C)[C@]2(O)C=O)O[C@@H](CO)[C@H](O)[C@H]1O` ?
50 µM

* * *

Assignment: determine reported MIC for the given compounds.
system: Enterococcus faecium 10; construct: 10; experiment: microbe, parasite or virus in culture; set-up: CLSI broth microdilution MIC in MHB-II; conditions: Enterococcus faecium, 10, 18 h, read-out: MIC
Entry rule: numbers only, all in µg/mL.

Which MIC value is on record for `CN[C@H](CC(C)C)C(=O)N[C@H]1C(=O)N[C@@H](CC(N)=O)C(=O)N[C@H]2C(=O)N[C@H]3C(=O)N[C@H](C(=O)N[C@H](C(=O)O)c4cc(O)cc(O)c4-c4cc3ccc4O)[C@H](O)c3ccc(c(Cl)c3)Oc3cc2cc(c3O[C@@H]2O[C@H](CO)[C@@H](O)[C@H](O)[C@H]2O[C@H]2C[C@](C)(N)[C@H](O)[C@H](C)O2)Oc2ccc(cc2Cl)[C@H]1O` ?
1

Which MIC value is on record for `CCCCCCCCCCCCCCCC(=O)N[C@@H](CCCNC(=N)N)C(=O)Nc1ccc(CN[C@H](C(=O)O)[C@H](O[C@@H]2O[C@H](CN)[C@@H](O)[C@H]2O)[C@H]2O[C@@H](n3ccc(=O)[nH]c3=O)[C@H](O)[C@@H]2O)cc1` ?
1

Which MIC value is on record for `CCCCCCCCCCCCCCCC(=O)N[C@@H](CCCCN)C(=O)NCc1cccc(CN[C@H](C(=O)O)[C@H](O[C@@H]2O[C@H](CN)[C@@H](O)[C@H]2O)[C@H]2O[C@@H](n3ccc(=O)[nH]c3=O)[C@H](O)[C@@H]2O)c1` ?
1

* * *

system: Enterococcus faecium 10; construct: 10; experiment: microbe, parasite or virus in culture; design: CLSI broth microdilution MIC in MHB-II; details: Enterococcus faecium, 10, 18 h, read-out: MIC
Assignment: determine reported MIC for the given compounds.
Entry rule: numbers only, all in mg/L.

Which MIC value is on record for `CCCCCCCCCCCCCCCC(=O)N[C@@H](CCCNC(=N)N)C(=O)NCc1cccc(CN[C@H](C(=O)O)[C@H](O[C@@H]2O[C@H](CN)[C@@H](O)[C@H]2O)[C@H]2O[C@@H](n3ccc(=O)[nH]c3=O)[C@H](O)[C@@H]2O)c1` ?
1

Which MIC value is on record for `CCCCCCCCCCCCCCCC(=O)N[C@@H](CCCCN)C(=O)Nc1ccc(CN[C@H](C(=O)O)[C@H](O[C@@H]2O[C@H](CN)[C@@H](O)[C@H]2O)[C@H]2O[C@@H](n3ccc(=O)[nH]c3=O)[C@H](O)[C@@H]2O)cc1` ?
0.5

* * *

test system: Enterococcus faecalis 28; construct: 28; assay: microbe, parasite or virus in culture; design: CLSI broth microdilution MIC in MHB-II; settings: Enterococcus faecalis, 28, 18 h, read-out: MIC
reportedEndpoint: MIC (µg/mL)
Entry rule: numbers only, all in µg/mL.

Which MIC value is on record for `C[C@H]1COc2c(N3CCN(C)CC3)c(F)cc3c(=O)c(C(=O)O)cn1c23` ?
1

Which MIC value is on record for `CCCCCCCCCCCCCCCC(=O)N[C@@H](CCCCN)C(=O)Nc1cccc(CN[C@H](C(=O)O)[C@H](O[C@@H]2O[C@H](CN)[C@@H](O)[C@H]2O)[C@H]2O[C@@H](n3ccc(=O)[nH]c3=O)[C@H](O)[C@@H]2O)c1` ?
0.13

* * *

Assignment: determine reported MIC for the given compounds.
test system: Staphylococcus aureus #2933; construct: #2933; experiment: microbe, parasite or virus in culture; parameters: CLSI broth microdilution MIC in MHB-II; details: Staphylococcus aureus, 18 h, read-out: MIC
Entry rule: numbers only, all in µg/mL.

Which MIC value is on record for `CCCCCCCCCCCCCCCC(=O)N[C@@H](CCCNC(=N)N)C(=O)NCc1ccc(CN[C@H](C(=O)O)[C@H](O[C@@H]2O[C@H](CN)[C@@H](O)[C@H]2O)[C@H]2O[C@@H](n3ccc(=O)[nH]c3=O)[C@H](O)[C@@H]2O)cc1` ?
1

Which MIC value is on record for `CCCCCCCCCCCCCCCC(=O)N[C@@H](CCCCN)C(=O)Nc1ccc(CN[C@H](C(=O)O)[C@H](O[C@@H]2O[C@H](CN)[C@@H](O)[C@H]2O)[C@H]2O[C@@H](n3ccc(=O)[nH]c3=O)[C@H](O)[C@@H]2O)cc1` ?
0.5

Which MIC value is on record for `CCCCCCCCCCCCCCCC(=O)N[C@@H](CCCNC(=N)N)C(=O)Nc1ccc(CN[C@H](C(=O)O)[C@H](O[C@@H]2O[C@H](CN)[C@@H](O)[C@H]2O)[C@H]2O[C@@H](n3ccc(=O)[nH]c3=O)[C@H](O)[C@@H]2O)cc1` ?
1

Which MIC value is on record for `CCCCCCCCCCCCCCCC(=O)N[C@@H](CCCNC(=N)N)C(=O)Nc1cccc(CN[C@H](C(=O)O)[C@H](O[C@@H]2O[C@H](CN)[C@@H](O)[C@H]2O)[C@H]2O[C@@H](n3ccc(=O)[nH]c3=O)[C@H](O)[C@@H]2O)c1` ?
1

Which MIC value is on record for `CCCCCCCCCCCCCCCC(=O)N[C@@H](CCCCN)C(=O)NCc1cccc(CN[C@H](C(=O)O)[C@H](O[C@@H]2O[C@H](CN)[C@@H](O)[C@H]2O)[C@H]2O[C@@H](n3ccc(=O)[nH]c3=O)[C@H](O)[C@@H]2O)c1` ?
0.5

Which MIC value is on record for `CN[C@H](CC(C)C)C(=O)N[C@H]1C(=O)N[C@@H](CC(N)=O)C(=O)N[C@H]2C(=O)N[C@H]3C(=O)N[C@H](C(=O)N[C@H](C(=O)O)c4cc(O)cc(O)c4-c4cc3ccc4O)[C@H](O)c3ccc(c(Cl)c3)Oc3cc2cc(c3O[C@@H]2O[C@H](CO)[C@@H](O)[C@H](O)[C@H]2O[C@H]2C[C@](C)(N)[C@H](O)[C@H](C)O2)Oc2ccc(cc2Cl)[C@H]1O` ?
1

Which MIC value is on record for `CCCCCCCCCCCCCCCC(=O)N[C@@H](CCCCN)C(=O)Nc1cccc(CN[C@H](C(=O)O)[C@H](O[C@@H]2O[C@H](CN)[C@@H](O)[C@H]2O)[C@H]2O[C@@H](n3ccc(=O)[nH]c3=O)[C@H](O)[C@@H]2O)c1` ?
0.5

Which MIC value is on record for `CC1(C)S[C@@H]2[C@H](NC(=O)[C@H](N)c3ccccc3)C(=O)N2[C@H]1C(=O)O` ?
32

Which MIC value is on record for `CCCCCCCCCCCCCCCC(=O)N[C@@H](CCCNC(=N)N)C(=O)NCc1cccc(CN[C@H](C(=O)O)[C@H](O[C@@H]2O[C@H](CN)[C@@H](O)[C@H]2O)[C@H]2O[C@@H](n3ccc(=O)[nH]c3=O)[C@H](O)[C@@H]2O)c1` ?
1
